Tested on: 496974-208-R-J2-PDC complex spheroids, growth % test/control;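 also: spheroids exposed to the drugs for 7 days before readout; 100% = DMSO vehicle control wells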
Experiment: Anticancer human tumor 496974-208-R-J2-PDC patient-derived pancreatic carcinoma cell line growth inhibition [CLK]
Settings: compound 3.16 µM; stronger effect = lower value
Measured viability, T/C by item

Chemical smiles	viability, T/C
CN1CCN(c2cc(C(=O)Nc3cc4cc(-c5cnn(C)c5)ccc4cn3)ccn2)CC1	0.79% [middle of 12 runs]
O=C(c1cc(Cc2n[nH]c(=O)c3ccccc23)ccc1F)N1CCN(C(=O)C2CC2)CC1	95.2%
CNC(=O)c1ccc(Nc2nc(OC3CCCC3)c3c(-c4ccc5nc(C)oc5c4)c[nH]c3n2)c(OC)c1	62.4% [middle of 10 runs]
CC(=O)O[C@H]1C(=O)[C@@]2(C)[C@H]([C@H](OC(=O)c3ccccc3)[C@]3(O)C[C@H](OC(=O)[C@H](O)[C@@H](NC(=O)c4ccccc4)c4ccccc4)C(C)=C1C3(C)C)[C@]1(OC(C)=O)CO[C@@H]1C[C@@H]2O	38.6%
